Target: T1, STING (mouse, UniProt Q3TBT3 1-378)
T1 sequence (looked up): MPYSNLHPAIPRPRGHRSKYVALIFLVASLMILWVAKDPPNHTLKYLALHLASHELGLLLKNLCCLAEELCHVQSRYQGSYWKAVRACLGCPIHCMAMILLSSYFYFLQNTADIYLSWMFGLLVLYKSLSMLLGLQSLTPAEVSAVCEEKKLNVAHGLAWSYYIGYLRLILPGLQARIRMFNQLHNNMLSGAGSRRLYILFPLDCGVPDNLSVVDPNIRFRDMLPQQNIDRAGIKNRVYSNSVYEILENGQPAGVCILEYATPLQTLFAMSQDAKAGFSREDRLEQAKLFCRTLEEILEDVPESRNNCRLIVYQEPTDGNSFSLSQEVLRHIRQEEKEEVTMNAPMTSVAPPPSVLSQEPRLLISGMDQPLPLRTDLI
Assay: cell-based or functional assay
Response field label: string, one of MET (IC50 for inhibiting Ifnb mRNA (RT-qPCR, RAW264.7 cells stimulated with 2'3'-cGAMP) strictly below 30 µM) or NOT MET.

Binder	Assigned label
NFNVAHGLAWSYYIGYLRLILPELQARIRTYN (N-terminus acetylated (-Ac); C-terminus amidated (-NH2)) [SIP-8]	NOT MET
NFNVAHGLAWSYYIGYLRLILPELQ (N-terminus acetylated (-Ac); C-terminus amidated (-NH2)) [SIP-7]	MET
NFNVAHGLAWSYYIGYLRLILPELQARIRTYNQHYNNL (not fully specified; N-terminus acetylated (-Ac); C-terminus amidated (-NH2)) [SIP-9]	NOT MET
Ac-NFNVAHGLAWSYYIGYLRLIL-NH2 (not fully specified) [SIP-6]	NOT MET
Ac-NFNVAHGLAWSYYIG-NH2 (not fully specified) [SIP-5]	MET
Ac-LAWSYYIGYLRL-NH2 [SIP-1]	MET
NFNVAHGLAWSYYIGYLRLILPELQARIRTYNQHYNNLLR (N-terminus acetylated (-Ac); C-terminus amidated (-NH2)) [SIP-11]	NOT MET

Continue with the next binder.
Prompt: Does the reported IC50 for inhibiting Ifnb mRNA (RT-qPCR, RAW264.7 cells stimulated with 2'3'-cGAMP) of the following binder sit strictly below 30 µM? NFNVAHGLAWSYYIGYLRLILPELQARIRTYNQHYNNLL (N-terminus acetylated (-Ac); C-terminus amidated (-NH2)) [SIP-10]
Completion: NOT MET
